Target desc: T1, full-length untagged human GPNMB expressed on cells (human, UniProt Q14956 23-572)
T1 sequence: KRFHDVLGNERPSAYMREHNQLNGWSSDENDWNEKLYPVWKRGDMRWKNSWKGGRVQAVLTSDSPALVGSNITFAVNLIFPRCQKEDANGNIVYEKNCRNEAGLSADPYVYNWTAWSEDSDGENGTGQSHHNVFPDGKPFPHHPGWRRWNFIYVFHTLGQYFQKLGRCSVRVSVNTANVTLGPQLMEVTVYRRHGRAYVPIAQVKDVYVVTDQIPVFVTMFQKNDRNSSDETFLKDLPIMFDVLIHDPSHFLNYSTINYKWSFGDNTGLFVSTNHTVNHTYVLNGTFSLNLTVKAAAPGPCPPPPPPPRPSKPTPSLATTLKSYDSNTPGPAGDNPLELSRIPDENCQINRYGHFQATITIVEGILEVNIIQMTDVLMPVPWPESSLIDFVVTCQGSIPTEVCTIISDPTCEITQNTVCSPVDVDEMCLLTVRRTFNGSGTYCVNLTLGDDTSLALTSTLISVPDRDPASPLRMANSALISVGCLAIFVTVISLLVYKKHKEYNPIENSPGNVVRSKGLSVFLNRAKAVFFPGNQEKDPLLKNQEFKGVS
Protocol notes: cell-based or functional assay
Parameter measured: CD80 (FoB)
Numeric answer only, unit FoB assumed.

anti-GPNMB antibody GPN-34 (antibody, human IgG1, V domains shown, chimeric) VH: EVKLVESGGGLVQPGRSLKLSCAASGFNFYDYWMGWVRQAPGKGLEWIGEINKDSRTINYTPFLKDRFTISRDNAQNTLYLQMSKLGSEDTAIYYCAREGRVPFDYWGQGVMVTVSS VL: DIQMTQSPSSMSVSLGDTVTIPCRASQDVGSYVNWFQQKPGKSPRHMIYRATNLADGVPSRFSGSRSGADYSLTISSLESEDVADYHCQQYAEYPLTFGSGTKLEIK: 1.36

Okay, next one:
input: I would be grateful if you could share the reported CD80 (FoB) for anti-GPNMB antibody GPN-26 (antibody, human IgG1, V domains shown, chimeric) VH: EVQLQQSGPELVKPGASVKISCKASGYSFTGYYMNWVRQSPEKSLEWIGEINPSTGITTYNQKFKAKATLTVDKSSNTAFMQLKSLTSEDSAVYYCARPASWFDYWGQGTLVTVSA VL: DIQMTQSPSSLSASLGERVSLTCRASQEISGHLSWLQQKPDGTIKRLIYAASTLDSGVPKRFSGSRSGSDYSLTISSLESEDFADYYCLQYASYPYTFGGGTKLEIK .
output: 1.4
